Cited source for all entries: patent US20260193366A1

In this section we review reported Relative Inhibition of IL-13 induced TARC IC50 values for a set of binders.
system: T1, hIL-4Rα on cells (human, UniProt P24394 26-825)
T1 sequence: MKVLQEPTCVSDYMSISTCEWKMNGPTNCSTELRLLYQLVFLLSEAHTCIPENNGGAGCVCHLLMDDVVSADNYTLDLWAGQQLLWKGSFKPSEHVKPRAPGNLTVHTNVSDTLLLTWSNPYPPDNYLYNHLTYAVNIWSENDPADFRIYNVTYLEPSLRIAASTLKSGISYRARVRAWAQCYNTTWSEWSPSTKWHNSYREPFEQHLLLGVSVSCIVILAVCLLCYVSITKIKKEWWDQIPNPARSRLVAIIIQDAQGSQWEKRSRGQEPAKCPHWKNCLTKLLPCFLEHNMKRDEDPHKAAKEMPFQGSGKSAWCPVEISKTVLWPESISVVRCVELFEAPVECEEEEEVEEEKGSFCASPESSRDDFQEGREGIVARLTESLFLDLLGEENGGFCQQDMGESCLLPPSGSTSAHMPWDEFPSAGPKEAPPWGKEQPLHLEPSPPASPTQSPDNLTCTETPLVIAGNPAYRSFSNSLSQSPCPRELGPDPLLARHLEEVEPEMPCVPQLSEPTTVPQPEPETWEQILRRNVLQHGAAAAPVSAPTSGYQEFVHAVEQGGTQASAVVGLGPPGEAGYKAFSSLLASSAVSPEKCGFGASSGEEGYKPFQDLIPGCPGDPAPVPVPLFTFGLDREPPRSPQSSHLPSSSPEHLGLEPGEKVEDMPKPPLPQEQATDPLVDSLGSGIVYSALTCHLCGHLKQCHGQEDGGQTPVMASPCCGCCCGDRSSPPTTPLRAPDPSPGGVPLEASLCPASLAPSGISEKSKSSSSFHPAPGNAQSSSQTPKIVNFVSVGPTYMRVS
assay_details: cell-based or functional assay

Construct 24 (mAb432) (antibody, IgG4, V domains shown, VH/VL only) VH: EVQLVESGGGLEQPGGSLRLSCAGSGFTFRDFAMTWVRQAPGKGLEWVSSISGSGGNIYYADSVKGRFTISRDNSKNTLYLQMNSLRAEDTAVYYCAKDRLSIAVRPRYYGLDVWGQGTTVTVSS VL: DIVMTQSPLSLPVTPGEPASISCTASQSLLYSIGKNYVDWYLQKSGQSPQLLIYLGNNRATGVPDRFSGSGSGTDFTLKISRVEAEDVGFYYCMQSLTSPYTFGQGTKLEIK | 0.594 relative to dupilumab

Now turn to the next binder.
Report Relative Inhibition of IL-13 induced TARC IC50 for Construct 42 (mAb481) (antibody, IgG4, V domains shown, VH/VL only) VH: EVQLVESGGGLEQPGGSLRLSCAGSGFTFRTYAMTWVRQAPGKGLEWVSSISGDGSNTYYADSVKGRFTISRDNSKNTLYLQMNSLRAEDTAVYYCAKDRVSITIRPRYYGLDVWGQGTTVTVSS VL: DIVMTQSPLSLPVTPGEPASISCTASQSLLYSIGYNYVDWYLQKSGQSPQLLIYLGNKRASGVPDRFSGSGSGTDFTLKISRVEAEDVGFYYCMQALTTPYTFGQGTKLEIK please.
1.62 relative to dupilumab
